study target: UniProt P08908
Sequence (P08908 whole entry): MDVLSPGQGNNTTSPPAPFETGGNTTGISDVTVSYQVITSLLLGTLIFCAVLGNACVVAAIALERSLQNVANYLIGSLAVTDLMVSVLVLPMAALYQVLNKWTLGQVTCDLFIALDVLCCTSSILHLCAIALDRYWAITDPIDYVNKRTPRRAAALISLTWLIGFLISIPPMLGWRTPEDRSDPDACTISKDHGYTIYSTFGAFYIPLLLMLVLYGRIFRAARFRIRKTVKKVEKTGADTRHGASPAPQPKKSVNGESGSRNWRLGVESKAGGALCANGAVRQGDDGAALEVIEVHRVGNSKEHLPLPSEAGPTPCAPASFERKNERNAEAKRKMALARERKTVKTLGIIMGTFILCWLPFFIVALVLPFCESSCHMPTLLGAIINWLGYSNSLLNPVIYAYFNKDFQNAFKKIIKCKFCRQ
protocol details: Binding assay 5-HT1A (h), [3H]8-OH-DPAT, HEK-293 cells
Set-up: expressed in transfected cells; host or cells: HEK-293 cells
settings: read-out: 5-HT1A
The entries below are paired with their reported inhibition at 1 µM.
Give your result in % as a bare value.

Consider the worked cases shown below.
O=S(=O)(NCCCCN1CCN(c2nsc3ccccc23)CC1)c1ccc2cn[nH]c2c1
69
O=S(=O)(NCCCCN1CCN(c2noc3ccccc23)CC1)c1ccc2c(c1)CCO2
68
O=S(=O)(NCCCCN1CCN(c2nsc3ccccc23)CC1)c1ccc(F)c(F)c1
90
O=S(=O)(NCCCN1CCN(c2nsc3ccccc23)CC1)c1cnc2ccccn12
90
O=S(=O)(NCCCCN1CCN(c2nsc3ccccc23)CC1)c1cnc2ccccn12
91

Now examine the next entry.
Looking up "COc1cccc(S(=O)(=O)NCCCCN2CCN(c3nsc4ccccc34)CC2)c1" , I see its inhibition at 1 µM listed as 89

---

study target: dopaminergic D3 receptor (Homo sapiens, UniProt P35462)
Sequence (P35462 whole entry): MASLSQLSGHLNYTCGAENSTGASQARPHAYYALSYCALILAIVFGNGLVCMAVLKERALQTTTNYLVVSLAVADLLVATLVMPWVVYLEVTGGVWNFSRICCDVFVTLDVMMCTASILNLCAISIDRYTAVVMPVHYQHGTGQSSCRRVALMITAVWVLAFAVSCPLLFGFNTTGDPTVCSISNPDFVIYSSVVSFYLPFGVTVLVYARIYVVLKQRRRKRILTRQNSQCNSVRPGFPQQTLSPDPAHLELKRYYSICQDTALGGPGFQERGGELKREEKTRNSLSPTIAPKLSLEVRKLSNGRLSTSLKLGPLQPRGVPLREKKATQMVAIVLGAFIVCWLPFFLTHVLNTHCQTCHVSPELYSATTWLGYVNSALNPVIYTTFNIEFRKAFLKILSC
protocol details: Binding assay D3 (h), [3H]methyl-spiperone, CHO cells
Parameters: expressed in transfected cells; host or cells: CHO cells
settings: read-out: D3 [%]
Protocol: The specific ligand binding to the receptors is defined as the difference between the total binding and the nonspecific binding determined in the presence of an excess of so unlabelled ligand. The specific Ligand binding to the receptor is defined as the difference between total and non-specific binding determined in the presence of an excess of unlabelled ligand. The compounds were tested at a concentration of 1×10^−6 M, and scintillation counting was the method of detection of ligand binding.
The entries below are paired with their reported inhibition at 1 µM.
Give your result in % as a bare value.

Consider the worked cases shown below.
O=S(=O)(NCCCN1CCN(c2nsc3ccccc23)CC1)c1csc2ccccc12 [Compound 263]
98
O=S(=O)(NCCCCN1CCN(c2nsc3ccccc23)CC1)c1cccc(Cl)c1 [Compound 69]
77
O=S(=O)(NCCCN1CCN(c2nsc3ccccc23)CC1)c1cccc2scnc12 [Compound 267]
99
O=S(=O)(NCCCCN1CCN(c2nsc3ccccc23)CC1)c1cccc(Br)c1 [Compound 230]
87
O=c1[nH]c2cccc(N3CCN(CCCCNS(=O)(=O)c4cccc5ccccc45)CC3)c2[nH]1 [Compound 418]
99
O=S(=O)(NCCCCN1CCC(c2noc3cc(F)ccc23)CC1)c1c[nH]c2ncccc12 [Compound 323]
96
O=S(=O)(NCCCN1CCN(c2nsc3ccccc23)CC1)c1ccc(Cl)s1 [Compound 196]
97
O=S(=O)(NCCCCN1CCC(c2noc3cc(F)ccc23)CC1)c1ccc(F)c(Cl)c1 [Compound 299]
98

Looking up O=S(=O)(NCCCCN1CCN(c2cccc3[nH]ccc23)CC1)c1cccc(Cl)c1 [Compound 113] , I see its inhibition at 1 µM listed as 99

Looking up O=S(=O)(NCCCCN1CCN(c2nsc3ccccc23)CC1)c1ccc(OC(F)(F)F)cc1 [Compound 236] , I see its inhibition at 1 µM listed as 85

Looking up O=S(=O)(NCCCCN1CCN(c2cccc3c2OCCO3)CC1)c1cc2ccc(Cl)cc2s1 [Compound 401] , I see its inhibition at 1 µM listed as 95

Looking up COc1cccc(S(=O)(=O)NCCCCN2CCN(c3cccc4c3OCCO4)CC2)c1 [Compound 394] , I see its inhibition at 1 µM listed as 86

Looking up O=S(=O)(NCCCN1CCC(c2noc3cc(F)ccc23)CC1)c1ccc2cc(Cl)ccc2c1 [Compound 98] , I see its inhibition at 1 µM listed as 104

Looking up O=S(=O)(NCCCCN1CCC(c2noc3cc(F)ccc23)CC1)c1ccc(OC(F)(F)F)cc1 [Compound 304] , I see its inhibition at 1 µM listed as 87

---

The entries below are paired with their reported inhibition at 1 µM.
study target: dopaminergic D3 receptor (Homo sapiens, UniProt P35462)
protocol details: Binding assay D3 (h), [3H]methyl-spiperone, CHO cells
Design: expressed in transfected cells; host or cells: CHO cells
settings: read-out: D3 [%]
Give your result as the value with the unit written after it.

Consider the worked cases shown below.
Cc1cccc(S(=O)(=O)NCCN2CCN(c3nsc4ccccc34)CC2)c1
91%
O=S(=O)(NCCCCN1CCN(c2cccc3c2OCCO3)CC1)c1cccc(O)c1
92%
Cn1ccc2c(S(=O)(=O)NCCCN3CCC(c4noc5cc(F)ccc45)CC3)cccc21
96%
O=S(=O)(NCCCCN1CCN(c2cccc3[nH]ccc23)CC1)c1cccc(F)c1
99%
O=S(=O)(NCCCN1CCN(c2nsc3ccccc23)CC1)c1cccc(Cl)c1
101%
Cc1[nH]c2ccc(Cl)cc2c1C1=CCN(CCCNS(=O)(=O)c2ccc(Cl)cc2)CC1
74%
O=S(=O)(NCCCCN1CCN(c2cccc3[nH]ccc23)CC1)c1cc2ccccc2s1
101%
O=S(=O)(NCCCN1CCN(c2cccc3c2OCCO3)CC1)c1cccc2ccccc12
62%

Now examine the next entry.
Observed inhibition at 1 µM, dopaminergic D3 receptor (Homo sapiens, UniProt P35462), "O=S(=O)(NCCCN1CCC(c2noc3cc(F)ccc23)CC1)c1csc2ccccc12" : 93%

---

study target: serotoninergic receptor 5-HT2C (Homo sapiens, UniProt P28335)
Construct: expressed in transfected cells; host or cells: HEK-293 cells
Sequence (P28335 33-458): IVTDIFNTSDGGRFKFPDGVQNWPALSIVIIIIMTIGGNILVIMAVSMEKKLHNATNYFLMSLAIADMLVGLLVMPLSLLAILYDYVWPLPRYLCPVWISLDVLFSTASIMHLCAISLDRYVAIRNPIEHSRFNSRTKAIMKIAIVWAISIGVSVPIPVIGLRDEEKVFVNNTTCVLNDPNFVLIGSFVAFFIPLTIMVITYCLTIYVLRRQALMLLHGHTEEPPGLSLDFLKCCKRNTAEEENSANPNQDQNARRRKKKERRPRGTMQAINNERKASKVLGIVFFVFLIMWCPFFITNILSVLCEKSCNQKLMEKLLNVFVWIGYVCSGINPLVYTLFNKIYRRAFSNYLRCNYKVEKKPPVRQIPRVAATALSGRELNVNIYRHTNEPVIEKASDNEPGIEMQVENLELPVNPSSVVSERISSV
protocol details: Binding assay 5-HT2C (h), [3H]mesulergine, HEK-293 cells
settings: read-out: 5-HT2C [%]
endpoint: inhibition at 1 µM (%)
Give your result in % as a bare value.

Consider the worked cases shown below.
O=S(=O)(NCCCN1CCN(c2nsc3ccccc23)CC1)c1ccc(Cl)s1 [Compound 196]
89
O=S(=O)(NCCCN1CCN(c2nsc3ccccc23)CC1)c1ccc2cn[nH]c2c1 [Compound 268]
78
CC(C)(C)c1ccc(S(=O)(=O)NCCCCN2CCC(c3noc4cc(F)ccc34)CC2)cc1 [Compound 301]
79
O=S(=O)(NCCCN1CCN(c2nsc3ccccc23)CC1)c1ccc(-c2ccccc2)cc1 [Compound 260]
90

Looking up Cc1c(S(=O)(=O)NCCCCN2CCC(c3noc4cc(F)ccc34)CC2)sc2ccc(Cl)cc12 [Compound 315] , I see its inhibition at 1 µM listed as 78

---

study target: serotoninergic 5-HT6 receptor (Homo sapiens)
Sequence (P50406 whole entry): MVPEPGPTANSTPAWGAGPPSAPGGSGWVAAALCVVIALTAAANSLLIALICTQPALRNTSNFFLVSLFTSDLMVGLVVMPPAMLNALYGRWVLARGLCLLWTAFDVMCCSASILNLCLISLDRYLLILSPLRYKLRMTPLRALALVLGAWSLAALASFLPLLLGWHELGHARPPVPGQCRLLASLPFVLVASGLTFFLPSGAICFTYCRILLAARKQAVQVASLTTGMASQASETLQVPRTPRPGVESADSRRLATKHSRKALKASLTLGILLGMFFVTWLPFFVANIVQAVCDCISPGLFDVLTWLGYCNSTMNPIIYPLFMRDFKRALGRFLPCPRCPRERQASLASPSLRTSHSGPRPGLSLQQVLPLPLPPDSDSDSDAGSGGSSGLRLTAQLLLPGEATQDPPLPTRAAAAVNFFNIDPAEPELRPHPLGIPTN
protocol details: Binding assay 5-HT6 (h), [3H]LSD, CHO cells
Parameters: expressed in transfected cells; host or cells: CHO cells
settings: read-out: 5-HT6
endpoint: inhibition at 1 µM
Give your result as the value with the unit written after it.

O=S(=O)(NCCCCN1CCN(c2nsc3ccccc23)CC1)c1csc2ccccc12
98%
O=C1COc2c(cccc2N2CCN(CCCCNS(=O)(=O)c3ccc(Cl)s3)CC2)N1
35%

Looking up "Cc1c(S(=O)(=O)NCCCCN2CCN(c3cccc4[nH]ccc34)CC2)sc2ccc(F)cc12" , I see its inhibition at 1 µM listed as 80%

---

The entries below are paired with their reported α1 [%].
System: adrenergic α1 receptor
protocol details: Binding assay α1 (non-selective), [3H]prazosin, rat cerebral cortex
settings: percent inhibition of control specific binding; compounds tested at 1×10^−6 M
Protocol: The specific ligand binding to the receptors is defined as the difference between the total binding and the nonspecific binding determined in the presence of an excess of so unlabelled ligand. The specific Ligand binding to the receptor is defined as the difference between total and non-specific binding determined in the presence of an excess of unlabelled ligand. The compounds were tested at a concentration of 1×10^−6 M, and scintillation counting was the method of detection of ligand binding.
Give your result as the value with the unit written after it.

Consider the worked cases shown below.
Cc1cccc(S(=O)(=O)NCCCCN2CCN(c3cccc4c3OCCO4)CC2)c1
92%
O=S(=O)(NCCCCN1CCN(c2noc3ccccc23)CC1)c1ccc(-c2ccccc2)cc1
92%
O=S(=O)(NCCCCN1CCN(c2cccc3[nH]ccc23)CC1)c1ccc2cc(Cl)ccc2c1
88%
O=S(=O)(NCCCN1CCN(c2nsc3ccccc23)CC1)c1c[nH]c2ncccc12
88%

Now examine the next entry.
Observed α1 [%], adrenergic α1 receptor, "O=S(=O)(NCCCCN1CCN(c2nsc3ccccc23)CC1)c1ccc(Cl)c(Cl)c1" : 92%

---

study target: serotoninergic 5-HT2A receptor (Homo sapiens, UniProt P28223)
Sequence (P28223 whole entry): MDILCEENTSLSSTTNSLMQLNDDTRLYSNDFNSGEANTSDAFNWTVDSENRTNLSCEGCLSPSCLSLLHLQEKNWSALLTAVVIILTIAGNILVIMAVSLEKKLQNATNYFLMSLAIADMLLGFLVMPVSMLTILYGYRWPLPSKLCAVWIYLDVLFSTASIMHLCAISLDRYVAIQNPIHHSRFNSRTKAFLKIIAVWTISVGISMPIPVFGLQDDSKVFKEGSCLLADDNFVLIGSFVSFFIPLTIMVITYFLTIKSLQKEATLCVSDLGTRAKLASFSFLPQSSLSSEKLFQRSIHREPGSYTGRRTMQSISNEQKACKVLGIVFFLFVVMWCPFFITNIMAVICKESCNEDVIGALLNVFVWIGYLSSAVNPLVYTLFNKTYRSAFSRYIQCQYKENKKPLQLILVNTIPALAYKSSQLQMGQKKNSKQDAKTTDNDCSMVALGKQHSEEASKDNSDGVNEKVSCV
protocol details: Binding assay 5-HT2A (h), [3H]ketanserin, HEK-293 cells
Set-up: expressed in transfected cells; host or cells: HEK-293 cells
settings: read-out: 5-HT2A
The entries below are paired with their reported inhibition at 1 µM.
Give your result as the value with the unit written after it.

Looking up O=S(=O)(NCCCN1CCN(c2nsc3ccccc23)CC1)c1cnc2ccccn12 [Compound 76] , I see its inhibition at 1 µM listed as 81%

Looking up O=S(=O)(NCCCCN1CCN(c2cccc3[nH]ccc23)CC1)c1ccc(F)cc1 [Compound 359] , I see its inhibition at 1 µM listed as 79%

Looking up O=S(=O)(NCCCCN1CCC(c2noc3cc(F)ccc23)CC1)c1ccc(Cl)c(Cl)c1 [Compound 297] , I see its inhibition at 1 µM listed as 95%

Looking up O=S(=O)(NCCCN1CCN(c2nsc3ccccc23)CC1)c1ccc2ccccc2c1 [Compound 6] , I see its inhibition at 1 µM listed as 100%

Looking up O=S(=O)(NCCCN1CCC(c2noc3cc(F)ccc23)CC1)c1ccc2ccccc2c1 [Compound 21] , I see its inhibition at 1 µM listed as 100%
